# study.target: D(1A) dopamine receptor (Rattus norvegicus, UniProt P18901)
# Sequence (P18901 whole entry): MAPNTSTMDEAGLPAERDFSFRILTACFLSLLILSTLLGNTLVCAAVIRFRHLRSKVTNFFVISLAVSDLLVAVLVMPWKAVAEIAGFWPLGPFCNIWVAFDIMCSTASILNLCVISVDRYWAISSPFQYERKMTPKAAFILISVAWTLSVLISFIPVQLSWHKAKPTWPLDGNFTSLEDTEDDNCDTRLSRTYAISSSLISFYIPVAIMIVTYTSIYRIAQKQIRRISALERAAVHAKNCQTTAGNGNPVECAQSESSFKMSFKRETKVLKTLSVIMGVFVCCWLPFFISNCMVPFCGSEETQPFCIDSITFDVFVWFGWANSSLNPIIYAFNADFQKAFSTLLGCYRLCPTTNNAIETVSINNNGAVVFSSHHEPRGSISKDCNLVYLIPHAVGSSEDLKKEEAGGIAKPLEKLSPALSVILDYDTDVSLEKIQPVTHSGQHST
# assay.text: Displacement of [3H]-SCH23390 from D1 receptor of Wistar rat striatal membranes after 1 hr by liquid scintillation counting
# Format: cell membranes, Membrane
# condition.label: read-out: pKi (converted)
parameter: Ki (nM)
All answers are understood in nM, so give the number only.

CN1CCc2cc(O)c(O)c3c2C1Cc1ccccc1-3 (stereo unspecified) | 397
CN1CCc2cc3c(c4c2C1Cc1ccccc1-4)OCO3 (racemic) | 324
COc1cc2c3c(c1OC)-c1ccccc1CC3N(C)CC2 (racemic) [(+/-)-NUCIFERINE] | 587
CN(C)CCc1cc2c(c3c1ccc1ccccc13)OCO2 | 4140
COc1cc(CCN(C)C)c2ccc3ccccc3c2c1OC | 2920

# get_value(readout='Ki', item= CN(C)CCc1cc(O)c(O)c2c1ccc1ccccc12 )
6190

---

# Organism: Rattus norvegicus
# assay.text: Selectivity ratio of Ki for D1 receptor of Wistar rat striatal membranes to Ki for D2 receptor of Wistar rat striatal membranes
# Assay type: cell membranes
# condition.label: Membrane
Overview of recorded Ratio Ki for various compounds
# answer = number (no unit)

See these solved cases before continuing.
CN1CCc2cc3c(c4c2C1Cc1ccccc1-4)OCO3 (racemic) | 4.4
CN(C)CCc1cc(O)c(O)c2c1ccc1ccccc12 | 157
CN(C)CCc1cc2c(c3c1ccc1ccccc13)OCO2 | 96
COc1cc(CCN(C)C)c2ccc3ccccc3c2c1OC | 9.1

As a next step, examine the compound that follows.
What value of Ratio Ki has been reported for the following compound? CN1CCc2cc(O)c(O)c3c2C1Cc1ccccc1-3 (stereo not given)
8.9

---

# study.target: D(2) dopamine receptor (Rattus norvegicus, UniProt P61169)
# Sequence (P61169 whole entry): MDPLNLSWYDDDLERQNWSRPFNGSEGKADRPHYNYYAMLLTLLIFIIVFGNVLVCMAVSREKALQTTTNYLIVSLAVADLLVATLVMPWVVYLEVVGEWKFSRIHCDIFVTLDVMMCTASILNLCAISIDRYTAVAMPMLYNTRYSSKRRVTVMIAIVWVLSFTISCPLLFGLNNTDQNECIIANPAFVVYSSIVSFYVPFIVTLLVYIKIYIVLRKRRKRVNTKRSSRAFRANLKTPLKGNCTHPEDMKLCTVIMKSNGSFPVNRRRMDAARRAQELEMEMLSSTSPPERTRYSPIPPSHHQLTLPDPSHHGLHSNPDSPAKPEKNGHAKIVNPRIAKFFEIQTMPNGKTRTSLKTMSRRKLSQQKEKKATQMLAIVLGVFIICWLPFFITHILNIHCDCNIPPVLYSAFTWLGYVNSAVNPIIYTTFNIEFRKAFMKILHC
# assay.text: Displacement of [3H]-raclopride from D2 receptor of Wistar rat striatal membranes after 1 hr by liquid scintillation counting
# Format: cell membranes, Membrane
# condition.label: read-out: pKi (converted)
So basically, if Ki comes in under 60 nM it's yes (1), and if it's 60 nM or more it's no (0).

CN(C)CCc1cc(O)c(O)c2c1ccc1ccccc12 | yes (1)
CN(C)CCc1cc2c(c3c1ccc1ccccc13)OCO2 | no (0)
COc1cc(CCN(C)C)c2ccc3ccccc3c2c1OC | no (0)
COc1cc2c3c(c1OC)-c1ccccc1CC3N(C)CC2 (racemic) [(+/-)-NUCIFERINE] | no (0)

Continue with the compound presented below.
Is Ki of CN1CCc2cc(O)c(O)c3c2C1Cc1ccccc1-3 (stereo not given) strictly below 60 nM?
yes (1)

---

# study.target: UniProt:P61169
# assay.text: Displacement of [3H]-raclopride from D2 receptor of Wistar rat striatal membranes after 1 hr by liquid scintillation counting
# Format: cell membranes, Membrane
# condition.label: read-out: Ki
pKi: −log10 of the molar value.
Give yes when the value for pKi is at least 7. Give no when it is less.

Use these answered entries as a reference point.
CN1CCc2cc(O)c(O)c3c2C1Cc1ccccc1-3 (stereo unspecified) | yes
COc1cc2c3c(c1OC)-c1ccccc1CC3N(C)CC2 (racemic) [(+/-)-NUCIFERINE] | no

Check if pKi >= 7 (inclusive). Item: COc1cc(CCN(C)C)c2ccc3ccccc3c2c1OC
no

Evaluate CN(C)CCc1cc(O)c(O)c2c1ccc1ccccc12 : pKi at minimum 7?
yes

---

Reported Ki values for the following compounds.
# study.target: D(1A) dopamine receptor (Rattus norvegicus)
# assay.text: Displacement of [3H]-SCH23390 from D1 receptor of Wistar rat striatal membranes after 1 hr by liquid scintillation counting
# Assay type: cell membranes, Membrane
# condition.label: read-out: Ki
Answer in nM, number only, no unit symbol.

Which Ki is listed for CN(C)CCc1cc(O)c(O)c2c1ccc1ccccc12 ?
7700

For the compound shown here, COc1cc2c3c(c1OC)-c1ccccc1CC3N(C)CC2 (racemic) [(+/-)-NUCIFERINE] , give the reported Ki.
630

What does the data say about its Ki? Entry: COc1cc(CCN(C)C)c2ccc3ccccc3c2c1OC
2940

What does the data say about its Ki? Entry: CN(C)CCc1cc2c(c3c1ccc1ccccc13)OCO2
6350

Give its Ki value. Item: CN1CCc2cc3c(c4c2C1Cc1ccccc1-4)OCO3 (racemic)
377

Given CN1CCc2cc(O)c(O)c3c2C1Cc1ccccc1-3 (stereo unspecified) , state its recorded Ki.
401
